The values you see were collected from patent US10583128B2.

- Test system: SCN1A mRNA
- experiment-description: Upregulation of SCN1A mRNA in primary human skin fibroblasts carrying a Dravet-associated mutation (real time PCR)
- Type: cell-based
- condition-notes: Homo sapiens, Skin fibroblast, compound 1 uM, 24-48 h, 18S-normalized vs vehicle (DMSO), average upregulation, read-out: fold increase in SCN1A mRNA levels, SCN1A fibroblasts, Avg
Counter-ions that a name gives are not always drawn.
I would appreciate it if you labelled entries 1 (yes) when fold induction at 1 µM is 3 or higher, otherwise 0 (no).

compound	assigned-category
Cc1nc2n(c(=O)c1CCN1CCC(c3noc4cc(F)ccc34)CC1)CCCC2	1 (yes)

Determine whether this compound has fold induction at 1 µM no lower than 3: "COc1ccc(-c2oc3c(CC=C(C)C)c(O[C@@H]4O[C@H](CO)[C@@H](O)[C@H](O)[C@H]4O)cc(O)c3c(=O)c2O[C@@H]2O[C@@H](C)[C@H](O)[C@@H](O)[C@H]2O)cc1" 0 (no)

Determine whether this compound has fold induction at 1 µM no lower than 3: CCOc1cc(N)c(Cl)cc1C(=O)NCC1CN(Cc2ccc(F)cc2)CCO1 (centres unmarked) [Mosapride] 0 (no)

Determine whether this compound has fold induction at 1 µM no lower than 3: "CN1C(=O)CN=C(c2ccccc2)c2cc([N+](=O)[O-])ccc21" 0 (no)

Determine whether this compound has fold induction at 1 µM no lower than 3: CC(N=C(NC#N)Nc1ccncc1)C(C)(C)C (centres unmarked) 1 (yes)

Determine whether this compound has fold induction at 1 µM no lower than 3: Cc1cccc(Nc2ccncc2S(=O)(=O)NC(=O)NC(C)C)c1 [Torsemide] 1 (yes)

Determine whether this compound has fold induction at 1 µM no lower than 3: "C[C@H]1CCC[C@H](O)CCCCCc2cc(O)cc(O)c2C(=O)O1" 0 (no)

Determine whether this compound has fold induction at 1 µM no lower than 3: CCN(CC)C(=O)C1(c2ccccc2)CC1CN (centres unmarked) [Milnacipran, hydrochloride] 1 (yes)

====

Listing: fold induction at 1 µM of selected compounds
- Tested on: SCN1A mRNA
- experiment-description: Upregulation of SCN1A mRNA in primary human skin fibroblasts carrying a Dravet-associated mutation (real time PCR)
- Format: cell-based
- condition-notes: Homo sapiens, Skin fibroblast, compound 1 uM, 24-48 h, 18S-normalized vs vehicle (DMSO), average upregulation, read-out: fold increase in SCN1A mRNA levels, SCN1A fibroblasts, Avg

Sample records with fold induction at 1 µM:
compound	fold induction at 1 µM
CC(C)c1ccc2oc3nc(N)c(C(=O)O)cc3c(=O)c2c1	2.01
COc1ccc2[nH]c([S+]([O-])Cc3ncc(C)c(OC)c3C)nc2c1 (stereo not shown)	2.22
C[C@]12Cc3c[nH]nc3C[C@@H]1CC[C@@H]1[C@@H]2CC[C@@]2(C)[C@H]1CC[C@]2(C)O	1.75
CC(=O)N1CCN(c2ccc(OCC3COC(Cn4ccnc4)(c4ccc(Cl)cc4Cl)O3)cc2)CC1 (stereo not shown)	2.95

Recorded fold induction at 1 µM of "CN1CC(=O)N2[C@H](c3ccc4c(c3)OCO4)c3[nH]c4ccccc4c3C[C@@H]2C1=O" , please. 2.73

Recorded fold induction at 1 µM of "CN[C@H]1CC[C@@H](c2ccc(Cl)c(Cl)c2)c2ccccc21" , please. 1.79

Recorded fold induction at 1 µM of "O=c1c2ccccc2[se]n1-c1ccccc1" , please. 2.81
